Experiment: Photostability test (UV and visible light), impurity content and color change
Format: physicochemical
Details: photostability test; initial
Structures can show the parent of a compound that is named as a salt.
measurement name: Impurity content (%), Initial

Example molecules with recorded Impurity content (%), Initial:
* CCCOc1ccc(S(=O)(=O)N2CCN(CCO)CC2)cc1-c1nc2c(CCC)cn(CC)c2c(=O)[nH]1 [SK-3530 gentisate salt] | 0.09
* CCCOc1ccc(S(=O)(=O)N2CCN(CCO)CC2)cc1-c1nc2c(CCC)cn(CC)c2c(=O)[nH]1.Cl.Cl [SK-3530 dihydrochloride salt, reference compound] | 0.20
* CCCOc1ccc(S(=O)(=O)N2CCN(CCO)CC2)cc1-c1nc2c(CCC)cn(CC)c2c(=O)[nH]1 [SK-3530 maleate salt] | 0.12

(A) CCCOc1ccc(S(=O)(=O)N2CCN(CCO)CC2)cc1-c1nc2c(CCC)cn(CC)c2c(=O)[nH]1 [SK-3530 fumarate salt]
(B) CCCOc1ccc(S(=O)(=O)N2CCN(CCO)CC2)cc1-c1nc2c(CCC)cn(CC)c2c(=O)[nH]1 [SK-3530 citrate salt]
(C) CCCOc1ccc(S(=O)(=O)N2CCN(CCO)CC2)cc1-c1nc2c(CCC)cn(CC)c2c(=O)[nH]1 [SK-3530 hemitartrate salt]
Exam item: Task for the reader: rank each entry by its Impurity content (%), Initial, from the minimum upward. Respond with an ordered listing of the labels, as requested.
Marked response: A, C, B
